testSummary: in vivo
Parameters: species or system mice
testParameters: male, NODSCID 1L2RγKO, mouse, iv, total radioactivity, Pancreas uptake
Field 'label' (enum: label 1 / label 0). Set to label 1 when tissue uptake at 4 h is strictly under 1 %ID/g; else label 0.

Examples from the recorded data:
compound="COc1ccc(CCCC(=O)NCC(=O)N[C@@H](CCCCNC(=O)CN2CCN(CC(=O)O)CCN(CC(=O)O)CCN(CC(=O)O)CC2)C(=O)NC[C@H]2CC[C@H](C(=O)N[C@@H](Cc3c4ccccc4cc4ccccc34)C(=O)NCCCC[C@H](NC(=O)N[C@@H](COCC(=O)O)C(=O)O)C(=O)O)CC2)cc1 [177Lu-HTK04028, metal not drawn]" group="label 0"
compound="O=C(O)CCC[C@H](NC(=O)N[C@@H](CCCCNC(=O)[C@H](Cc1c2ccccc2cc2ccccc12)NC(=O)[C@H]1CC[C@H](CNC(=O)CN2CCN(CC(=O)O)CCN(CC(=O)O)CCN(CC(=O)O)CC2)CC1)C(=O)O)C(=O)O [177Lu-HTK03149, metal not drawn]" group="label 1"
compound="O=C(O)CCC[C@H](NC(=O)N[C@@H](CCCCNC(=O)[C@H](Cc1c2ccccc2cc2ccccc12)NC(=O)[C@H]1CC[C@H](CNC(=O)[C@H](CCCCNC(=O)CN2CCN(CC(=O)O)CCN(CC(=O)O)CCN(CC(=O)O)CC2)NC(=O)CNC(=O)CCCc2ccc(Cl)cc2)CC1)C(=O)O)C(=O)O [177Lu-HTK03153, metal not drawn]" group="label 0"
compound="COc1ccc(CCCC(=O)NCC(=O)N[C@@H](CCCCNC(=O)CN2CCN(CC(=O)O)CCN(CC(=O)O)CCN(CC(=O)O)CC2)C(=O)NC[C@H]2CC[C@H](C(=O)N[C@@H](Cc3c4ccccc4cc4ccccc34)C(=O)NCCCC[C@H](NC(=O)N[C@@H](CCCC(=O)O)C(=O)O)C(=O)O)CC2)cc1 [177Lu-HTK03170, metal not drawn]" group="label 1"

In: Lab note: tissue uptake at 4 h threshold 1 %ID/g. Does this compound come in strictly under it? COc1ccc(CCCC(=O)NCC(=O)N[C@@H](CCCCNC(=O)CN2CCN(CC(=O)O)CCN(CC(=O)O)CCN(CC(=O)O)CC2)C(=O)NC[C@H]2CC[C@H](C(=O)N[C@@H](Cc3c4ccccc4cc4ccccc34)C(=O)NCCCC[C@H](NC(=O)N[C@@H](CSCC(=O)O)C(=O)O)C(=O)O)CC2)cc1 [177Lu-HTK04048, metal not drawn]
Out: label 0

* * *

testSummary: in vivo
testParameters: male, NODSCID 1L2RγKO, mouse, iv, total radioactivity, Adrenal glands uptake
Class Fulfilled: tissue uptake at 1 h at least 0.3 %ID/g. Class Not fulfilled: tissue uptake at 1 h below 0.3 %ID/g.

molecule="O=C(O)CCC[C@H](NC(=O)N[C@@H](CCCCNC(=O)[C@H](Cc1c2ccccc2cc2ccccc12)NC(=O)[C@H]1CC[C@H](CNC(=O)CN2CCN(CC(=O)O)CCN(CC(=O)O)CCN(CC(=O)O)CC2)CC1)C(=O)O)C(=O)O [68Ga-HTK03149, metal not drawn]" group=Fulfilled
molecule="O=C(O)COC[C@H](NC(=O)N[C@@H](CCCCNC(=O)[C@H](Cc1c2ccccc2cc2ccccc12)NC(=O)[C@H]1CC[C@H](CNC(=O)CN2CCN(CC(=O)O)CCN(CC(=O)O)CCN(CC(=O)O)CC2)CC1)C(=O)O)C(=O)O [68Ga-HTK03187, metal not drawn]" group="Not fulfilled"
molecule="O=C(O)CCC[C@H](NC(=O)N[C@@H](CCCCNC(=O)[C@H](Cc1c2ccccc2cc2ccccc12)NC(=O)Cc1cccc(CNC(=O)CN2CCN(CC(=O)O)CCN(CC(=O)O)CCN(CC(=O)O)CC2)c1)C(=O)O)C(=O)O [68Ga-HTK04037, metal not drawn]" group="Not fulfilled"
molecule="O=C(O)CCC[C@H](NC(=O)N[C@@H](CCCCNC(=O)[C@H](Cc1ccc2ccccc2c1)NC(=O)[C@H]1CC[C@H](CNC(=O)CN2CCN(CC(=O)O)CCN(CC(=O)O)CCN(CC(=O)O)CC2)CC1)C(=O)O)C(=O)O [68Ga-HTK03169, metal not drawn]" group="Not fulfilled"
molecule="O=C(O)CCCCC(NC(=O)N[C@@H](CCCCNC(=O)[C@H](Cc1c2ccccc2cc2ccccc12)NC(=O)[C@H]1CC[C@H](CNC(=O)CN2CCN(CC(=O)O)CCN(CC(=O)O)CCN(CC(=O)O)CC2)CC1)C(=O)O)C(=O)O (single isomer, unassigned) [68Ga-HTK03189A, metal not drawn]" group=Fulfilled
molecule="O=C(O)CSC[C@H](NC(=O)N[C@@H](CCCCNC(=O)[C@H](Cc1c2ccccc2cc2ccccc12)NC(=O)[C@H]1CC[C@H](CNC(=O)CN2CCN(CC(=O)O)CCN(CC(=O)O)CCN(CC(=O)O)CC2)CC1)C(=O)O)C(=O)O [68Ga-HTK03177, metal not drawn]" group=Fulfilled
molecule="O=C(O)CC[C@H](NC(=O)N[C@@H](CCCCNC(=O)[C@H](Cc1c2ccccc2cc2ccccc12)NC(=O)[C@H]1CC[C@H](CNC(=O)CN2CCN(CC(=O)O)CCN(CC(=O)O)CCN(CC(=O)O)CC2)CC1)C(=O)O)C(=O)O [68Ga-HTK03041, metal not drawn]" group=Fulfilled
molecule="O=C(O)C[C@H](NC(=O)N[C@@H](CCCCNC(=O)[C@H](Cc1c2ccccc2cc2ccccc12)NC(=O)[C@H]1CC[C@H](CNC(=O)CN2CCN(CC(=O)O)CCN(CC(=O)O)CCN(CC(=O)O)CC2)CC1)C(=O)O)C(=O)O [68Ga-HTK03161, metal not drawn]" group=Fulfilled

In: Could you please find out whether O=C(O)CCC[C@H](NC(=O)N[C@@H](CCCCNC(=O)[C@H](Cc1c2ccccc2cc2ccccc12)NC(=O)c1ccc(NC(=O)CN2CCN(CC(=O)O)CCN(CC(=O)O)CCN(CC(=O)O)CC2)cc1)C(=O)O)C(=O)O [68Ga-HTK04041, metal not drawn] has tissue uptake at 1 h that meets 0.3 %ID/g or exceeds it?
Out: Fulfilled

In: Could you please find out whether O=C(O)CN1CCN(CC(=O)O)CCN(CC(=O)NC[C@H]2CC[C@H](C(=O)N[C@@H](Cc3c4ccccc4cc4ccccc34)C(=O)NCCCC[C@H](NC(=O)N[C@@H](C[C@@H](F)C(=O)O)C(=O)O)C(=O)O)CC2)CCN(CC(=O)O)CC1 [68Ga-HTK04033, metal not drawn] has tissue uptake at 1 h that meets 0.3 %ID/g or exceeds it?
Out: Not fulfilled

In: Could you please find out whether O=C(O)CCC[C@H](NC(=O)N[C@@H](CCCCNC(=O)[C@H](Cc1cccc(I)c1)NC(=O)[C@H]1CC[C@H](CNC(=O)CN2CCN(CC(=O)O)CCN(CC(=O)O)CCN(CC(=O)O)CC2)CC1)C(=O)O)C(=O)O [68Ga-HTK04053, metal not drawn] has tissue uptake at 1 h that meets 0.3 %ID/g or exceeds it?
Out: Not fulfilled

In: Could you please find out whether O=C(O)CN1CCN(CC(=O)O)CCN(CC(=O)NC[C@H]2CC[C@H](C(=O)N[C@@H](Cc3c4ccccc4cc4ccccc34)C(=O)NCCCC[C@H](NC(=O)N[C@@H](C[C@H](F)C(=O)O)C(=O)O)C(=O)O)CC2)CCN(CC(=O)O)CC1 [68Ga-HTK04040, metal not drawn] has tissue uptake at 1 h that meets 0.3 %ID/g or exceeds it?
Out: Fulfilled

Data credit: patent US11504441B2
